Biological target: T1, bio-LAG3-mFc (human, UniProt P18627 23-450, biotin-labelled)
T1 construct: also called hLAG-3
T1 sequence (looked up): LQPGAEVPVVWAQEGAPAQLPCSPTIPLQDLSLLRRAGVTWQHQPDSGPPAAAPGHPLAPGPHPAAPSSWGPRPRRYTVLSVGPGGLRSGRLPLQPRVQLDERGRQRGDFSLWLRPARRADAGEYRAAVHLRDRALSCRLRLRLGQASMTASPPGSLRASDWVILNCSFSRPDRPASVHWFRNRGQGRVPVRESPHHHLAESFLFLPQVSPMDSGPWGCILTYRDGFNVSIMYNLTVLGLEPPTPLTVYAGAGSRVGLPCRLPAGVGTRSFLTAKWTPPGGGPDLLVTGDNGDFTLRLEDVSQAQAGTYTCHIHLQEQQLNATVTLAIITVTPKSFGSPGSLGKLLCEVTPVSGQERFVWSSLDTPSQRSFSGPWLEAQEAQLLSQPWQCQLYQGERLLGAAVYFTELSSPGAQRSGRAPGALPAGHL
Assay: blocking ELISA, LAG-3 on Daudi cells
MEASURED_QUANTITY: pIC50
pIC50 (log units): -log10 of the concentration in mol/L.

Here are 8 binders together with their reported answers.
Ab2315 (antibody, human IgG4 S228P, kappa, V domains shown, LG2315 / LG2343, human kappa / hIgG4) VH: QVQLVQSGAEVKKPGASVKVSCKASGYTFTDYEMHWVKQAPGQGLEWIGGIDPETEGIAYNQKFRGRATLTADKSTSTAYMELRSLRSDDTAVYYCTNSNYYGGREAWFAYWGQGTLVTVSS VL: DIQMTQSPSSLSASVGDRVTITCRASQDIGSSLNWLQQKPGKAIKRLIYATSSLDSGVPSRFSGSGSGTDYTLTISSLQPEDFATYYCLQYVTSPLTFGGGTKVEIKR; 8.66
Ab2319 (antibody, human IgG4 S228P, kappa, V domains shown, human kappa / hIgG4) VH: QVQLVQSGAEVKKPGASVKVSCKASGYTFTDYEMHWVKQAPGQGLEWIGGIDPETEGIAYNQKFRGRATMTTDKSTSTAYMELRSLRSDDTAVYYCTNSNYYGGREAWFAYWGQGTLVTVSS VL: DIQMTQSPSSLSASVGDRVTITCRASQDIGSSLNWLQQKPGKAIKRLIYATSSLDSGVPSRFSGSRSGSDYTLTISSLQPEDFATYYCLQYVTSPLTFGGGTKVEIKR; 8.73
Ab2318 (antibody, human IgG4 S228P, kappa, V domains shown, human kappa / hIgG4) VH: QVQLVQSGAEVKKPGASVKVSCKASGYTFTDYEMHWVKQAPGQGLEWIGGIDPETEGIAYNQKFRGRATLTADKSTSTAYMELRSLRSDDTAVYYCTNSNYYGGREAWFAYWGQGTLVTVSS VL: DIQMTQSPSSLSASVGDRVTITCRASQDIGSSLNWLQQKPGKAIKRLIYATSSLDSGVPSRFSGSRSGTDFTLTISSLQPEDFATYYCLQYVTSPLTFGGGTKVEIKR; 9.07
Ab2313 (antibody, human IgG4 S228P, kappa, V domains shown, human kappa / hIgG4) VH: QVQLVQSGAEVKKPGASVKVSCKASGYTFTDYEMHWVKQAPGQGLEWIGGIDPETEGIAYNQKFRGRATLTADKSTSTAYMELRSLRSDDTAVYYCTNSNYYGGREAWFAYWGQGTLVTVSS VL: DIQMIQSPSSLSASVGDRVTITCRASQDIGSSLNWLQQKPGGAIKRLIYATSSLDSGVPSRFSGSRSGSDYSLTISSLQPEDFATYYCLQYVTSPLTFGGGTKVEIKR; 8.49
Ab2320 (antibody, human IgG4 S228P, kappa, V domains shown, human kappa / hIgG4) VH: QVQLVQSGAEVKKPGASVKVSCKASGYTFTDYEMHWVKQAPGQGLEWIGGIDPETEGIAYNQKFRGRATMTTDKSTSTAYMELRSLRSDDTAVYYCTNSNYYGGREAWFAYWGQGTLVTVSS VL: DIQMTQSPSSLSASVGDRVTITCRASQDIGSSLNWLQQKPGKAIKRLIYATSSLDSGVPSRFSGSGSGTDYTLTISSLQPEDFATYYCLQYVTSPLTFGGGTKVEIKR; 8.88
Ab2316 (antibody, human IgG4 S228P, kappa, V domains shown, human kappa / hIgG4) VH: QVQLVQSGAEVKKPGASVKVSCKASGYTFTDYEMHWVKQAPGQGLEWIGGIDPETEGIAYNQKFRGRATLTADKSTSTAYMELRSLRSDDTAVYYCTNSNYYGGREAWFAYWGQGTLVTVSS VL: DIQMTQSPSSLSASVGDRVTITCRASQDIGSSLNWLQQKPGKAIKRLIYATSSLDSGVPSRFSGSRSGSDFTLTISSLQPEDFATYYCLQYVTSPLTFGGGTKVEIKR; 8.82
Ab2314 (antibody, human IgG4 S228P, kappa, V domains shown, human kappa / hIgG4) VH: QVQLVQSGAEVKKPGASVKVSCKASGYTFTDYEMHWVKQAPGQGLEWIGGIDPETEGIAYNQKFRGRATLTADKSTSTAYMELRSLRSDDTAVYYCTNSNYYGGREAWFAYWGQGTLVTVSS VL: DIQMTQSPSSLSASVGDRVTITCRASQDIGSSLNWLQQKPGKAIKRLIYATSSLDSGVPSRFSGSRSGSDYTLTISSLQPEDFATYYCLQYVTSPLTFGGGTKVEIKR; 8.91
Ab2322 (antibody, human IgG4 S228P, kappa, V domains shown, human kappa / hIgG4) VH: QVQLVQSGAEVKKPGASVKVSCKASGYTFTDYEMHWVKQAPGQGLEWIGGIDPETEGIAYNQKFRGRATMTTDTSTSTAYMELRSLRSDDTAVYYCTNSNYYGGREAWFAYWGQGTLVTVSS VL: DIQMTQSPSSLSASVGDRVTITCRASQDIGSSLNWYQQKPGKAPKRLIYATSSLDSGVPSRFSGSRSGSDFTLTISSLQPEDFATYYCLQYVTSPLTFGGGTKVEIKR; 8.63

Exercise: State the recorded pIC50 for this entry: humanized antibody Ab2325 (antibody, human IgG4 S228P, kappa, V domains shown, LG2317 / LG2348, human kappa / hIgG4) VH: QVQLVQSGAEVKKPGASVKVSCKASGYTFTDYEMHWVKQAPGQGLEWMGGIDPETEGIAYNQKFRGRATMTTDTSTSTAYMELRSLRSDDTAVYYCANSNYYGGREAWFAYWGQGTLVTVSS VL: DIQMTQSPSSLSASVGDRVTITCRASQDIGSSLNWYQQKPGKAPKRLIYATSSLDSGVPSRFSGSRSGSDFTLTISSLQPEDFATYYCLQYVTSPLTFGGGTKVEIKR
Key: 8.75
